# system.name: Induced myeloid leukemia cell differentiation protein Mcl-1 (Homo sapiens)
# assay.procedure: blockers of Bid binding to Mcl-1 – biochemical, TR-FRET, dose response (AID 1418)
# assay.context: Mcl-1/Bid peptide binding, TR-FRET (europium/Dy647), 2 hr
Active and inactive are the calls of the source. The rule behind the calls is not given here.
Pick one and only one: T = active, F = inactive

{"compound": "CCOC(=O)C1CCCN(Cc2ccccc2OCC)C1 (stereo unspecified)", "label.class": "F"}

## Input Give the logged outcome of this assay for the following compound: COc1cccc(C(=O)Nc2ccc3c(c2)C(=O)c2ccccc2C3=O)c1
## Output T

## Input Further, for Cc1ccc2[nH]c(=O)c(-c3nc4cc(C)ccn4c3NCc3ccco3)cc2c1 ?
## Output T

## Input Further, for O=c1c2cc(Cl)ccc2nc(-c2ccccc2Cl)n1O ?
## Output F

## Input Further, for Cc1ccc(NC(=O)c2ccc3ncsc3c2)cc1S(=O)(=O)N(C)C ?
## Output F
